Reference source for all entries: PubChem BioAssay (NCATS)

test: Quantitative High-Throughput drug screen in 47 multiple myeloma cell lines against the NCATS MIPE library collection: KMS28PE_JCRB cell viability assay (AID 1918983); settings: KMS28PE multiple myeloma viability, CellTiter-Glo ATP, 48 h; series mostly up to 45.8 µM; further: nearly all actives have a fitted effect of over 35% in size
Records with an inconclusive call do not appear. Active and inactive are the calls of the source. The call rests on the fitted dose curve; in most records, active means well fitted cell-killing curve with a large enough effect; inconclusive means small, poorly fitted or top-dose-only effect, or effect the other way; inactive means no such curve, though single readings can be large or run the other way.
Select the matching outcome among active, inactive

Record excerpt, results attached:
compound: C[C@@H](Oc1cc(-c2cnn(C3CCNCC3)c2)cnc1N)c1c(Cl)ccc(F)c1Cl
class: active

compound: CCCn1c(=O)c2[nH]c(-c3cnn(Cc4cccc(C(F)(F)F)c4)c3)nc2n(CC)c1=O
class: inactive

Outcome? CCC(=C(c1ccccc1)c1ccc(OCCN(C)C)cc1)c1ccccc1
active

How about COc1cc2ncn(-c3cc(OCc4ccccc4C(F)(F)F)c(C(N)=O)s3)c2cc1OC ?
active

Another compound to look at: CCCCCCCCCC(=O)N[C@@H](Cc1c[nH]c2ccccc12)C(=O)N[C@H](CC(N)=O)C(=O)N[C@@H](CC(=O)O)C(=O)N[C@@H]1C(=O)NCC(=O)N[C@@H](CCCN)C(=O)N[C@@H](CC(=O)O)C(=O)N[C@H](C)C(=O)N[C@@H](CC(=O)O)C(=O)NCC(=O)N[C@H](CO)C(=O)N[C@@H]([C@@H](C)CC(=O)O)C(=O)N[C@@H](CC(=O)c2ccccc2N)C(=O)O[C@@H]1C
inactive

For COc1cc(C)c(Sc2cnc(NC(=O)c3ccc(CNC(C)C(C)C)cc3)s2)cc1C(=O)N1CCN(C(C)=O)CC1 (configuration not stated) then?
active

Would you kindly repeat that for Cc1ccc(CN2CCNCC2)cc1NC(=O)CNc1ccc(F)c(F)c1 ?
active
